Test: Water solubility of compound by HPLC analysis
Format: physicochemical
solubility values for the compounds below.

chemical.string	measured.result
Cc1c(Cl)cccc1Nc1ccccc1C(=O)Nc1ccc(OCCNC(=O)OC(C)(C)C)cc1	< 0.001 mg/mL

# ---- query compound ----
Q) Please report the measured solubility for Cc1c(Cl)cccc1Nc1ccccc1C(=O)Nc1ccc(N2CCNCC2)cc1
A) 0.0323 mg/mL

###

Test: Half life in Sprague-Dawley rat at 100 mg/kg, po and measured upto 24 hrs by LC-MS analysis
Format: ADME, organism-based
Conditions: in vivo
reported.endpoint: half-life (h)
Expressed in h, but write only the number.

Q) Please report the measured half-life for Cc1c(Cl)cccc1Nc1ccccc1C(=O)Nc1ccc(N2CCNCC2)cc1
A) 8.87

###

Assay: Cmax in Sprague-Dawley rat at 30 mg/kg, po and measured upto 12 hrs by LC-MS analysis
Format: ADME, organism-based
Design: time < 12 hrs, dose 30 mg/kg, route po
Conditions: in vivo
reported.endpoint: Cmax (ng/mL)
Expressed in ng/mL, but write only the number.

Q) Please report the measured Cmax for Cc1c(Cl)cccc1Nc1ccccc1C(=O)Nc1ccc(N2CCNCC2)cc1
A) 1600

###

Biological target: Prostaglandin G/H synthase 2 (Homo sapiens) (UniProt P35354)
Sequence (P35354 whole entry, looked up): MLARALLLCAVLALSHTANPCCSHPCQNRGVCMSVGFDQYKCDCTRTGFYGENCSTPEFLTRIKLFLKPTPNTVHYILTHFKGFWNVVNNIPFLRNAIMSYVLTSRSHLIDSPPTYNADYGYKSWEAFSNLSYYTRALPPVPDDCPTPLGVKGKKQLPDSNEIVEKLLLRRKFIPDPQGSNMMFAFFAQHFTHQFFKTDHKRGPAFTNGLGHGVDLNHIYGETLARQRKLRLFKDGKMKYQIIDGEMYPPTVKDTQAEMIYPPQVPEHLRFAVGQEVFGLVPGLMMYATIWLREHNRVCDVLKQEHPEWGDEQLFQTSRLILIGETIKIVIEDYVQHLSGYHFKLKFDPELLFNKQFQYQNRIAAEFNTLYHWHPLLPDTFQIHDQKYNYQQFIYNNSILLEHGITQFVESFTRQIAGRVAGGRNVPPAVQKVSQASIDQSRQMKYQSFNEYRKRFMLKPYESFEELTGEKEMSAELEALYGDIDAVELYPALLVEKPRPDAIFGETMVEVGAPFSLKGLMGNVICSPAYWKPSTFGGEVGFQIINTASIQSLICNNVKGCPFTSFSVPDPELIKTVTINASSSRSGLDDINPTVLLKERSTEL
Experiment: Inhibition of COX-2 (unknown origin) at 30 uM
inhibition values for the molecules below.

chemical.string	inhibition
Cc1c(Cl)cccc1Nc1ccccc1C(=O)Nc1ccc(C(N)=O)cc1	3.53%
Cc1c(Cl)cccc1Nc1ccccc1C(=O)Nc1ccc(N2CCN(c3ccccc3)CC2)cc1	37.8%

Q) Please tell me the measured inhibition for Cc1c(Cl)cccc1Nc1ccccc1C(=O)Nc1ccc(OC(=O)CO)cc1 ; system: Prostaglandin G/H synthase 2 (Homo sapiens) (UniProt P35354).
A) 97.9%

Q) Please tell me the measured inhibition for CCN1CCN(c2ccc(NC(=O)c3ccccc3Nc3cccc(Cl)c3C)cc2)CC1 ; system: Prostaglandin G/H synthase 2 (Homo sapiens) (UniProt P35354).
A) 100%

Q) Please tell me the measured inhibition for Cc1c(Cl)cccc1Nc1ccccc1C(=O)Nc1ccc(S(N)(=O)=O)cc1 ; system: Prostaglandin G/H synthase 2 (Homo sapiens) (UniProt P35354).
A) 71.3%

Q) Please tell me the measured inhibition for Cc1c(Cl)cccc1Nc1ccccc1C(=O)Nc1ccc(OCCN)cc1 ; system: Prostaglandin G/H synthase 2 (Homo sapiens) (UniProt P35354).
A) 43.2%

Q) Please tell me the measured inhibition for COCC(=O)Oc1ccc(NC(=O)c2ccccc2Nc2cccc(Cl)c2C)cc1 ; system: Prostaglandin G/H synthase 2 (Homo sapiens) (UniProt P35354).
A) 47.7%

Q) Please tell me the measured inhibition for CC(=O)N1CCN(c2ccc(NC(=O)c3ccccc3Nc3cccc(Cl)c3C)cc2)CC1 ; system: Prostaglandin G/H synthase 2 (Homo sapiens) (UniProt P35354).
A) 60.3%

Q) Please tell me the measured inhibition for Cc1c(Cl)cccc1Nc1ccccc1C(=O)Nc1ccc(NCCO)cc1 ; system: Prostaglandin G/H synthase 2 (Homo sapiens) (UniProt P35354).
A) 100%

###

Biological target: DNA topoisomerase 1 (Homo sapiens) (UniProt P11387)
Sequence (P11387 whole entry): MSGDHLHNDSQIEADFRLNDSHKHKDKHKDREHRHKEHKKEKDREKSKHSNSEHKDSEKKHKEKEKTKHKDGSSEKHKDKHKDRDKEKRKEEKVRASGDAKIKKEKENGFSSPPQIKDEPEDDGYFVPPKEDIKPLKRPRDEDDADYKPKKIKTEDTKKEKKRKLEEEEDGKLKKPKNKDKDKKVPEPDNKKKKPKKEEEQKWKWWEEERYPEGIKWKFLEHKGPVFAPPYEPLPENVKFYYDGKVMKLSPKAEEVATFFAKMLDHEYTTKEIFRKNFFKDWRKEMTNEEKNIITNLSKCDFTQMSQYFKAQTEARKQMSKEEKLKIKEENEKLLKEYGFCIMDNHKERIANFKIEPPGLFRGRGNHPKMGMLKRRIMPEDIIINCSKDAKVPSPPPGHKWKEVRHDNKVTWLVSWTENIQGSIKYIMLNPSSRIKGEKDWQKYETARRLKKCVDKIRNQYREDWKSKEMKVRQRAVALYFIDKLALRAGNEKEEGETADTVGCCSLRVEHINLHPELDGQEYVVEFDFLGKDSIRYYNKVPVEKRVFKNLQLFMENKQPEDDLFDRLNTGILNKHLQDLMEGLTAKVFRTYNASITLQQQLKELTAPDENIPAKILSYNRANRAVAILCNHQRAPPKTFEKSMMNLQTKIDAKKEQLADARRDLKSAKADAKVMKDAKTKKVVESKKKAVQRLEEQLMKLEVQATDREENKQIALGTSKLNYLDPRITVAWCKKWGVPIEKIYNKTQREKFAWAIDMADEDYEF
Experiment: Inhibition of topoisomerase 1 (unknown origin) assessed as relaxation of supercoiled plasmid pBR322 DNA at 1 uM incubated for 45 mins by ethidium bromide staining based agarose gel electrophoresis
reported.endpoint: inhibition (%)
Expressed in %, but write only the number.

Use these answered entries as a reference point.
chemical.string	system.tested	reported.endpoint	measured.result
Cc1c(Cl)cccc1Nc1ccccc1C(=O)Nc1ccc(S(N)(=O)=O)cc1	DNA topoisomerase 1 (Homo sapiens) (UniProt P11387)	inhibition	19.8
Cc1c(Cl)cccc1Nc1ccccc1C(=O)Nc1ccc(OCCN)cc1	DNA topoisomerase 1 (Homo sapiens) (UniProt P11387)	inhibition	41.3
Cc1c(Cl)cccc1Nc1ccccc1C(=O)Nc1ccc(N2CCN(C(C)C)CC2)cc1	DNA topoisomerase 1 (Homo sapiens) (UniProt P11387)	inhibition	37.5

# ---- query compound ----
Q) Please report the measured inhibition for CCCCN1CCN(c2ccc(NC(=O)c3ccccc3Nc3cccc(Cl)c3C)cc2)CC1
A) 27.6

Hello, the source for this data is ChEMBL document CHEMBL5113460, in case you need it.
